- METHOD_DESCRIPTION: Phase I study: single- and multiple-dose serum pharmacokinetics of oral vorinostat 400 mg, fasted and after high-fat meal
- Type: in vivo, human
- APPLIED_CONDITIONS: human, serum, po, 400 mg, 400 mg oral, single dose, fed; median; read-out: Tmax
QUANTITY_NAME: Tmax (h)
Answer format: numeric, h implied, no suffix.

Returns the measured Tmax for the input molecule. Input: O=C(CCCCCCC(=O)Nc1ccccc1)NO [vorinostat, N-hydroxy-N′-phenyloctanediamide]
4

====

- METHOD_DESCRIPTION: Phase I study: single- and multiple-dose serum pharmacokinetics of oral vorinostat 400 mg, fasted and after high-fat meal
- Format: in vivo, human
- APPLIED_CONDITIONS: human, serum, po, 400 mg, 400 mg oral, single dose, fasted; serum; geometric mean; read-out: AUC0-24 hr
QUANTITY_NAME: AUC(0-t)

# lookup: AUC(0-t) of O=C(CCCCCCC(=O)Nc1ccccc1)NO [vorinostat, N-hydroxy-N′-phenyloctanediamide]
3.82 µM·h

====

- METHOD_DESCRIPTION: Dissolution rate of about 100 mg SAHA API before encapsulation (USP Dissolution Apparatus II, 900 mL 2.0% Tween, 37±0.5° C., 100 rpm, HPLC)
- Format: physicochemical
- APPLIED_CONDITIONS: 45 minutes
QUANTITY_NAME: Average SAHA % Dissolved at Time, minutes 45 (%)
Express the result in % but write the number alone.

Examples from the recorded data:
>  <MOLECULE>
O=C(CCCCCCC(=O)Nc1ccccc1)NO [1136-1136-00-001, suberoylanilide hydroxamic acid]

>  <RECORDED_NUMBER>
80.6

$$$$
>  <MOLECULE>
O=C(CCCCCCC(=O)Nc1ccccc1)NO [1007D, suberoylanilide hydroxamic acid]

>  <RECORDED_NUMBER>
71.8

$$$$

# Average SAHA % Dissolved at Time, minutes 45 lookup, item O=C(CCCCCCC(=O)Nc1ccccc1)NO [1008D, suberoylanilide hydroxamic acid]
61.8

Also need O=C(CCCCCCC(=O)Nc1ccccc1)NO [1376-C-RO-02, suberoylanilide hydroxamic acid] , thanks.
70.1

====

- METHOD_DESCRIPTION: Phase I study: single- and multiple-dose serum pharmacokinetics of oral vorinostat 400 mg, fasted and after high-fat meal
- Assay type: in vivo, human
- APPLIED_CONDITIONS: human, serum, po, 400 mg, 400 mg oral, multiple doses (once daily for 22 days), fed; serum; geometric mean; read-out: AUC0-24 hr
QUANTITY_NAME: AUC(0-t)
A bare number is not enough; add the unit after it.

Given the entry O=C(CCCCCCC(=O)Nc1ccccc1)NO [vorinostat, N-hydroxy-N′-phenyloctanediamide] , report its measured AUC(0-t).
6.46 µM·h

====

- METHOD_DESCRIPTION: Phase I study: single- and multiple-dose serum pharmacokinetics of oral vorinostat 400 mg, fasted and after high-fat meal
- Assay type: in vivo, human
- APPLIED_CONDITIONS: human, serum, po, 400 mg, 400 mg oral, single dose, fasted; geometric mean
QUANTITY_NAME: Cmax

Form field: reported Cmax of O=C(CCCCCCC(=O)Nc1ccccc1)NO [vorinostat, N-hydroxy-N′-phenyloctanediamide]
1120 nM

====

- METHOD_DESCRIPTION: Phase I study: single- and multiple-dose serum pharmacokinetics of oral vorinostat 400 mg, fasted and after high-fat meal
- Format: in vivo, human
- APPLIED_CONDITIONS: human, serum, po, 400 mg, 400 mg oral, single dose, fed; geometric mean
QUANTITY_NAME: Cmax (nM)
Give the value, in units of nM, as a plain number.

Bench note: what Cmax did O=C(CCCCCCC(=O)Nc1ccccc1)NO [vorinostat, N-hydroxy-N′-phenyloctanediamide] show?
1020
